Source of measurements: PubChem BioAssay AID1963862

# pIC50 per record follows
Test system: KRAS patient-derived spheroids with HUVEC/MSC, viability
ASSAY SUMMARY: Anticancer human tumor 941728-121-R-J1-PDC patient-derived lung adenocarcinoma cell line growth inhibition [KRAS2]
CONDITION DESCRIPTION: curve of first compound; second compound 0.1 µM
pIC50: −log10 of the molar value.

Recorded pIC50, per entry:
- COMPOUND: "COc1cc2nccc(Oc3ccc(NC(=O)C4(C(=O)Nc5ccc(F)cc5)CC4)cc3)c2cc1OC + C=CC(=O)N1CCN(c2nc(OCC3CCCN3C)nc3c2CCN(c2cccc4cccc(C)c24)C3)CC1CC#N"
  pIC50: "> 7.50"
- COMPOUND: "CCN1CCN(Cc2ccc(Nc3ncc(F)c(-c4cc(F)c5nc(C)n(C(C)C)c5c4)n3)nc2)CC1 + COc1cc2nc(C)nc(NC(C)c3cc(N)cc(C(F)(F)F)c3)c2cc1OC1CCOC1"
  pIC50: "> 8.50"

Q) # returns recorded pIC50 (system: KRAS patient-derived spheroids with HUVEC/MSC, viability) for CC1COCCN1c1cc(-c2ccnn2C)c2ccnc(-c3ccn[nH]3)c2n1 (stereo not drawn) + COc1cc2nc(C)nc(NC(C)c3cc(N)cc(C(F)(F)F)c3)c2cc1OC1CCOC1
A) 7.59

----------
Test system: KRAS patient-derived spheroids with HUVEC/MSC, viability
ASSAY SUMMARY: Anticancer human tumor 941728-121-R-J1-PDC cell line growth inhibition [KRAS2];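 further: spheroids exposed to agents for seven days before readout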
CONDITION DESCRIPTION: second compound 0.1 µM; first compound 0.01 µM; stronger effect = lower value
RESULT TYPE: viability, T/C

Example compounds with recorded viability, T/C:
- COMPOUND: "CC(=O)Nc1cccc(-n2c(=O)n(C3CC3)c(=O)c3c(Nc4ccc(I)cc4F)n(C)c(=O)c(C)c32)c1 + C=CC(=O)N1CCN(c2nc(=O)n(-c3c(C)ccnc3C(C)C)c3nc(-c4c(O)cccc4F)c(F)cc23)C(C)C1"
  READING: "19.6%"
- COMPOUND: "CCN1CCN(Cc2ccc(Nc3ncc(F)c(-c4cc(F)c5nc(C)n(C(C)C)c5c4)n3)nc2)CC1 + C=CC(=O)N1CCN(c2nc(OCC3CCCN3C)nc3c2CCN(c2cccc4cccc(C)c24)C3)CC1CC#N"
  READING: "21.3%"

Q) Lookup: viability, T/C / KRAS patient-derived spheroids with HUVEC/MSC, viability / Cn1ncnc1[C@H]1c2n[nH]c(=O)c3cc(F)cc(c23)N[C@@H]1c1ccc(F)cc1 + C=CC(=O)N1CCN(c2nc(=O)n(-c3c(C)ccnc3C(C)C)c3nc(-c4c(O)cccc4F)c(F)cc23)C(C)C1
A) 13.6%

----------
Tested on: KRAS patient-derived spheroids with HUVEC/MSC, viability
ASSAY SUMMARY: Anticancer human tumor 941728-121-R-J1-PDC cell line growth inhibition [KRAS2]; active means viability on the fitted dose curve at most 10% of control; inactive means the rest;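 further: spheroids exposed to agents for seven days before readout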
CONDITION DESCRIPTION: second compound 3.16 µM; first compound 0.01 µM
Use one of these outcomes when replying: class 1 = active, class 0 = inactive

- COMPOUND: "Cn1ncnc1[C@H]1c2n[nH]c(=O)c3cc(F)cc(c23)N[C@@H]1c1ccc(F)cc1 + C=CC(=O)N1CCN(c2nc(OCC3CCCN3C)nc3c2CCN(c2cccc4cccc(C)c24)C3)CC1CC#N"
  CLASS ASSIGNMENT: "class 1"
- COMPOUND: "CC(=O)OC12COC1CC(O)C1(C)C(=O)C(O)C3=C(C)C(OC(=O)C(O)C(NC(=O)OC(C)(C)C)c4ccccc4)CC(O)(C(OC(=O)c4ccccc4)C21)C3(C)C (stereo not given) + CNCc1ccccc1-c1csc(C(C)Nc2nc(C)nc3cc(OC)c(OC)cc23)c1"
  CLASS ASSIGNMENT: "class 0"

Q) For CC1COCCN1c1cc(-c2ccnn2C)c2ccnc(-c3ccn[nH]3)c2n1 (stereo not given) + CC1OCC2(CCN(c3cnc(Sc4ccnc(N)c4Cl)c(N)n3)CC2)C1N , what call appears in the results of this test?
A) class 0

Q) Call for entry Cn1ncnc1[C@H]1c2n[nH]c(=O)c3cc(F)cc(c23)N[C@@H]1c1ccc(F)cc1 + CNCc1ccccc1-c1csc(C(C)Nc2nc(C)nc3cc(OC)c(OC)cc23)c1 :
A) class 1

Q) Test call, this compound: CC(C)n1nc(-c2ccc3oc(N)nc3c2)c2c(N)ncnc21 + CC1OCC2(CCN(c3cnc(Sc4ccnc(N)c4Cl)c(N)n3)CC2)C1N
A) class 1

----------
Tested on: KRAS patient-derived spheroids with HUVEC/MSC, viability
ASSAY SUMMARY: Anticancer human tumor 941728-121-R-J1-PDC cell line growth inhibition [KRAS2];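 further: spheroids exposed to agents for seven days before readout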
CONDITION DESCRIPTION: curve of first compound; second compound 0.1 µM
Each record here notes measured IC50.

- COMPOUND: "CC1(C)CCC(CN2CCN(c3ccc(C(=O)NS(=O)(=O)c4ccc(NCC5CCOCC5)c([N+](=O)[O-])c4)c(Oc4cnc5[nH]ccc5c4)c3)CC2)=C(c2ccc(Cl)cc2)C1 + C=CC(=O)N1CCN(c2nc(=O)n(-c3c(C)ccnc3C(C)C)c3nc(-c4c(O)cccc4F)c(F)cc23)C(C)C1"
  READING: "< 0.0316 µM"

Now examine the next entry.
Q) Would you kindly share the measured IC50 for O=C(c1cc(Cc2n[nH]c(=O)c3ccccc23)ccc1F)N1CCN(C(=O)C2CC2)CC1 + COc1cc2nc(C)nc(NC(C)c3cc(N)cc(C(F)(F)F)c3)c2cc1OC1CCOC1 ?
A) > 10 µM

----------
Here the recorded viability, T/C is given for each entry.
Tested on: KRAS patient-derived spheroids with HUVEC/MSC, viability
ASSAY SUMMARY: Anticancer human tumor 941728-121-R-J1-PDC cell line growth inhibition [KRAS2];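 further: spheroids exposed to agents for seven days before readout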
CONDITION DESCRIPTION: second compound 0.1 µM; first compound 1 µM; stronger effect = lower value
Reply numerically in %, unit not repeated.

Example entries and their recorded answers appear below.
- MOLECULE: "CCN1CCN(Cc2ccc(Nc3ncc(F)c(-c4cc(F)c5nc(C)n(C(C)C)c5c4)n3)nc2)CC1 + COc1cc2nc(C)nc(NC(C)c3cc(N)cc(C(F)(F)F)c3)c2cc1OC1CCOC1"
  RESULT TYPE: "viability, T/C"
  READING UNIT: "%"
  READING: 43.3
- MOLECULE: "CC(C)NCC(C(=O)N1CCN(c2ncnc3c2C(C)CC3O)CC1)c1ccc(Cl)cc1 (stereo not drawn) + C=CC(=O)N1CCN(c2nc(OCC3CCCN3C)nc3c2CCN(c2cccc4cccc(C)c24)C3)CC1CC#N"
  RESULT TYPE: "viability, T/C"
  READING UNIT: "%"
  READING: 19.5

# next molecule below
Q) # viability, T/C lookup, item CC1COCCN1c1cc(-c2ccnn2C)c2ccnc(-c3ccn[nH]3)c2n1 (stereo not drawn) + COc1cc2nc(C)nc(NC(C)c3cc(N)cc(C(F)(F)F)c3)c2cc1OC1CCOC1
A) 26.8

----------
System: KRAS patient-derived spheroids with HUVEC/MSC, viability
ASSAY SUMMARY: Anticancer human tumor 941728-121-R-J1-PDC cell line growth inhibition [KRAS2];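 further: spheroids exposed to agents for seven days before readout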
CONDITION DESCRIPTION: second compound 10 µM; first compound 0.1 µM; stronger effect = lower value
Flag rule - viability, T/C less than 10% flags rule met; the remaining entries get rule not met.

# example entries with known answers
- COMPOUND: "Cn1nccc1Nc1nccc(-c2cc3c(s2)C(C)(C)N(CCN2CCOCC2)C3=O)n1 + C=CC(=O)N1CCN(c2nc(=O)n(-c3c(C)ccnc3C(C)C)c3nc(-c4c(O)cccc4F)c(F)cc23)C(C)C1"
  CLASS ASSIGNMENT: "rule not met"
- COMPOUND: "CCNC(=O)CC1N=C(c2ccc(Cl)cc2)c2cc(OC)ccc2-n2c(C)nnc21 (stereo unspecified) + COc1cc2nc(C)nc(NC(C)c3cc(N)cc(C(F)(F)F)c3)c2cc1OC1CCOC1"
  CLASS ASSIGNMENT: "rule not met"
- COMPOUND: "CC(C)n1nc(-c2ccc3oc(N)nc3c2)c2c(N)ncnc21 + CNCc1ccccc1-c1csc(C(C)Nc2nc(C)nc3cc(OC)c(OC)cc23)c1"
  CLASS ASSIGNMENT: "rule met"
- COMPOUND: "CC(C)NCC(C(=O)N1CCN(c2ncnc3c2C(C)CC3O)CC1)c1ccc(Cl)cc1 (stereo unspecified) + COc1cc2nc(C)nc(NC(C)c3cc(N)cc(C(F)(F)F)c3)c2cc1OC1CCOC1"
  CLASS ASSIGNMENT: "rule met"
- COMPOUND: "COc1cc(Nc2ncc3c(n2)-c2ccc(Cl)cc2C(c2c(F)cccc2OC)=NC3)ccc1C(=O)O + COc1cc2nc(C)nc(NC(C)c3cc(N)cc(C(F)(F)F)c3)c2cc1OC1CCOC1"
  CLASS ASSIGNMENT: "rule not met"

Continue with the compound presented below.
Q) Identify whether the compound O=C(c1cc(Cc2n[nH]c(=O)c3ccccc23)ccc1F)N1CCN(C(=O)C2CC2)CC1 + COc1cc2nc(C)nc(NC(C)c3cc(N)cc(C(F)(F)F)c3)c2cc1OC1CCOC1 records viability, T/C below 10%.
A) rule not met
